Tested on: Escherichia coli TOP10;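 also: peptides expressed intracellularly from a pBAD plasmid library in pooled LB shake-flask culture, induced with 0.3% L-arabinose, DNA abundance read by NGS, three biological replicates, DESeq2 with apeglm shrinkage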
Assay: shrunken log2 fold change of peptide-encoding DNA abundance (4.5 h post-induction vs induction); higher = less antimicrobial activity (less host growth inhibition)
Details: time post-induction: 4.5 h; library: site-saturation at positions 5, 18, 19, 20
Quick rule: shrunken log2 fold change of at least -0.1 means yes, below that means no.

Please tell me: is the sequence "RRIRMRPPRLPRPRPRPIPSPRP" at or over -0.1 in terms of shrunken log2 fold change? yes

Confirm if shrunken log2 fold change reported for the sequence "RRIRKRPPRLPRPRPRPDTHPRP" is -0.1 or above. yes

Quick check, shrunken log2 fold change >= -0.1? "RRIRIRPPRLPRPRPRPLFRPRP" no

Hi, just wondering whether "RRIRCRPPRLPRPRPRPLYAPRP" shows shrunken log2 fold change of -0.1 or higher. no

Is shrunken log2 fold change for "RRIRTRPPRLPRPRPRPCDCPRP" at or above -0.1? yes

Please tell me: is the sequence "RRIRDRPPRLPRPRPRPLTPPRP" at or over -0.1 in terms of shrunken log2 fold change? yes

Form field: shrunken log2 fold change at least -0.1? Entry: "RRIRVRPPRLPRPRPRPMYHPRP" yes

Please indicate if the recorded shrunken log2 fold change for "RRIRPRPPRLPRPRPRPIWMPRP" meets or exceeds -0.1. yes

Textbook exercise: given the entry "RRIRMRPPRLPRPRPRPIGIPRP" , state whether its shrunken log2 fold change is greater than or equal to -0.1. yes

Given the entry "RRIRERPPRLPRPRPRPYMCPRP" , answer whether its shrunken log2 fold change meets or surpasses -0.1. no

Decide: is the reported value of shrunken log2 fold change for "RRIRVRPPRLPRPRPRPGINPRP" equal to or greater than -0.1? yes

// inclusive: shrunken log2 fold change at least -0.1? input: "RRIRQRPPRLPRPRPRPARIPRP" yes

Hello, I need to know if "RRIRCRPPRLPRPRPRPNETPRP" has measured shrunken log2 fold change not below -0.1. Thanks! yes

Check if shrunken log2 fold change >= -0.1 (inclusive). Item: "RRIRARPPRLPRPRPRPRWFPRP" yes

hey, is shrunken log2 fold change for this one >= -0.1? "RRIRQRPPRLPRPRPRPMCHPRP" no

Say whether "RRIRERPPRLPRPRPRPIRTPRP" shows shrunken log2 fold change of -0.1 or more. no

Is shrunken log2 fold change for "RRIRIRPPRLPRPRPRPRNAPRP" at or above -0.1? yes

Please check the record "RRIRTRPPRLPRPRPRPWCSPRP" and state if its shrunken log2 fold change is at or above -0.1. no

Reported shrunken log2 fold change at or above -0.1? "RRIRWRPPRLPRPRPRPKHSPRP" yes

Entry "RRIRVRPPRLPRPRPRPDLHPRP" : is its shrunken log2 fold change no less than -0.1? yes

Threshold query (shrunken log2 fold change >= -0.1) on "RRIRHRPPRLPRPRPRPYGWPRP" no

Hello, I need to know if "RRIRYRPPRLPRPRPRPPCLPRP" has measured shrunken log2 fold change not below -0.1. Thanks! no

Reported shrunken log2 fold change reaches at least -0.1 for "RRIRFRPPRLPRPRPRPIYKPRP" ? no

# check: shrunken log2 fold change of "RRIRHRPPRLPRPRPRPSPEPRP" is greater than or equal to -0.1 yes

Quick check, shrunken log2 fold change >= -0.1? "RRIRERPPRLPRPRPRPYKAPRP" no

Record "RRIRHRPPRLPRPRPRPFFAPRP" ; criterion: shrunken log2 fold change no lower than -0.1. Met? yes

hey, is shrunken log2 fold change for this one >= -0.1? "RRIRFRPPRLPRPRPRPDLDPRP" yes

Record "RRIRERPPRLPRPRPRPFHEPRP" ; criterion: shrunken log2 fold change no lower than -0.1. Met? yes

I'd appreciate it if you could say whether "RRIRKRPPRLPRPRPRPNIAPRP" has shrunken log2 fold change at least equal to -0.1. yes

shrunken log2 fold change >= -0.1 for "RRIRKRPPRLPRPRPRPFAEPRP" ? yes

Form field: shrunken log2 fold change at least -0.1? Entry: "RRIRNRPPRLPRPRPRPYHDPRP" no
